Field: GI50. Provide a value for each of the molecules that follow.
# Test system: UACC-257
# Test Name: NCI tumour cell line growth inhibition, 48 h
The source made the active and inactive calls. Cut-off read from the data, not from the text of the source: active = GI50 up to about 1.1 µM and inactive = higher.

Record request: GI50 value, item CN(C)CCNc1ccc2nnn3c4ccccc4c(=O)c1c23
3.46 µM (inactive)

Reported GI50, molecule Cc1c(/C=N/N=C/c2[nH]c(C(=O)OC(C)(C)C)c(C)c2C)[nH]c(C(=O)OC(C)(C)C)c1C : ____
> 100 µM (inactive)

Name the recorded GI50 for Cc1ccc(NC(=O)/C(=N\NC(N)=O)c2c(O)c3ccccc3[nH]c2=O)cc1 .
> 100 µM (inactive)

Suppose we examine the molecule COC1CC(OS(=O)(=O)c2ccc([N+](=O)[O-])cc2)C(OC(=O)c2ccccc2)C(C)O1 (stereo not given) ; what GI50 value has been reported?
> 100 µM (inactive)

Which GI50 reading was recorded for the molecule CCOc1cc2c(cc1O)CC[C@@H]1[C@@H]2CC[C@]2(C)C(N)CC[C@@H]12 (stereo not given in full) ?
3.44 µM (inactive)

# get_value(readout='GI50', item= CCN1CCC(O)(/C=C/c2ccc(C)cc2C)C(C(=O)/C=C/c2ccc(C)cc2C)C1 (stereo not given) )
4.99 µM (inactive)

Which GI50 is listed for CCC1NC(=O)C1NC(=O)OC (stereo not given) ?
> 100 µM (inactive)

Name the recorded GI50 for O=CCOCc1cc2c(cc1Br)OCO2 .
> 100 µM (inactive)

Recorded GI50 of Nc1nc(Cl)c(C=O)c(NCC2(CO)CC(CCc3ccccc3)C2)n1 (stereo not given) , please.
3.08 µM (inactive)

Look up GI50 for this molecule: Oc1cc2c3c(c1)CCCN3CCC2
> 10 µM (inactive)

* * *

Field: GI50. Provide a value for each of the compounds that follow.
# Test system: SF-268
# Test Name: NCI tumour cell line growth inhibition, 48 h
Activity calls are given as the source filed them. No stated cut-off is given here; in the data, active = GI50 up to about 1.1 µM and inactive = higher.

Look up GI50 for this compound: CC(=O)/C=C1\CC(=O)N(C)c2ccccc2N1
> 100 µM (inactive)

// returns reported GI50 for input CCOC(=O)N1CCC(N[C@@H]2c3cc4c(cc3[C@@H](c3cc(OC)c(O)c(OC)c3)[C@H]3C(=O)OC[C@@H]32)OCO4)CC1
2.73 µM (inactive)

Entry CCOC(=O)N/N=C(/N)c1cccc(Br)c1 : reported GI50 = ?
> 100 µM (inactive)

Given c1ccc2c(c1)nnn2CNc1ccc(N2CCOCC2)cc1 , state its recorded GI50.
> 100 µM (inactive)

Consider the compound O=[PH](O)c1ccccn1 and give its measured GI50.
> 100 µM (inactive)

Look at this compound and give its reported GI50. Oc1cc2c3c(c1)CCCN3CCC2
> 10 µM (inactive)

* * *

Exercise: for every item that follows, state its recorded GI50.
# Tested on: DU-145
# Test Name: NCI tumour cell line growth inhibition, 48 h
Active and inactive are the calls of the source. No stated cut-off is given here; in the data, active = GI50 up to about 1.1 µM and inactive = higher. Non-standard residues stand in square brackets, D forms with d. Residues, ends and D or L forms follow the SMILES beside them. *: point of attachment. Cbz = O=C(OCc1ccccc1)*; Boc = CC(C)(C)OC(=O)*; Aib = CC(C)(N)C(=O)O; OBn = c1ccc(CO*)cc1; OtBu = CC(C)(C)O*; βAla = NCCC(=O)O

Which GI50 value belongs to NC(=O)CN1CCN(c2nc(N3CCCC3)c3nc(Cl)c(NCc4ccccc4)nc3n2)CC1 ?
11.5 µM (inactive)

Bench note: what GI50 did S=C(/N=c1\sc(Nc2ccc(Cl)cc2)nc2sc3c(c12)CCN(N1CCc2c(sc4nc(Nc5ccc(Cl)cc5)s/c(=N\C(=S)Nc5ccc(Cl)cc5)c24)C1)C3)Nc1ccc(Cl)cc1 show?
25.4 µM (inactive)

For the molecule shown here, O=C1N=NC(=O)N1c1cc(C(F)(F)F)cc(C(F)(F)F)c1 , give the reported GI50.
5.28 µM (inactive)

Item under review: CN(C)c1ccc(C2CC(=O)CC(c3ccc(N(C)C)cc3)C23C(=O)NC(=S)NC3=O)cc1 (centres undefined) . Reported GI50?
> 100 µM (inactive)

Could you share which GI50 value was measured for O=c1cc(N2CCOCC2)[nH]c(=O)n1-c1cccc(Cl)c1 ?
> 100 µM (inactive)

Need GI50 of CCCOC1OC(CS(=O)(=O)O)C(O)C(O)C1O (centres undefined) , thanks.
> 100 µM (inactive)

Which GI50 value is on record for COc1ccc([C@@]23CCC(=O)C[C@@H]2N(C)CC3)cc1OC ?
> 100 µM (inactive)

I would be grateful if you could share the reported GI50 for CC(C)(C)OC(=O)CC(NC(=O)OC(C)(C)C)C(=O)NC(CCCCNC(=O)OCc1ccccc1)C(=O)NC(C)(C)C(=O)NCCC(=O)OCc1ccccc1 (centres undefined) (Boc-D(OtBu)K(Cbz)[Aib][βAla]-OBn; configuration not given here) .
> 100 µM (inactive)

Tell me the measured GI50 of Cc1cc(C)c2c(c1)CC1(Cc3c(ccc(C)c3C)C1=O)C2=O (centres undefined) , please.
> 100 µM (inactive)

Recorded GI50 of Clc1ccc2c(c1)CC1C[N+]3=C(CCCC3)C1=C2 (centres undefined) , please.
> 100 µM (inactive)

May I ask what GI50 has been recorded for C/C(CC/C(C)=N/O)=N\O ?
> 100 µM (inactive)

May I ask what GI50 has been recorded for O=C(NNS(=O)(=O)c1ccccc1)c1cccnc1 ?
> 100 µM (inactive)

Endpoint output: GI50 of O=C(N/N=C1\C(=O)Nc2ccc(Br)cc21)/C(O)=C/C(=O)c1ccc(Cl)cc1 . Value?
> 100 µM (inactive)

Fill in: GI50 of CC1(c2nc3ccccc3[nH]2)CCC(C#N)C(C)(C)O1 (centres undefined) is ___
> 100 µM (inactive)

Looking for the measured GI50 of N#Cc1sc2c(c1OC(=O)c1ccc(Cl)cc1)c(=O)n(-c1ccccc1)c(=S)n2-c1ccccc1 , can you help?
25.8 µM (inactive)

Entry CN(C)CC1CCCC1=O (centres undefined) has what GI50?
17.5 µM (inactive)

What GI50 value was documented for this molecule, CCCCCCc1cc2cc(C(=O)Nc3nc(C45CC6CC(CC(C6)C4)C5)cs3)c(=O)oc2cc1O ?
22.1 µM (inactive)

Requested read-out: GI50. Entry: Cn1c(=O)c2c(nc3n2CC(=O)N3CCCCl)n(C)c1=O
> 100 µM (inactive)

Please give the measured GI50 for this molecule: Cc1ccc2nc3ccccc3c(C3C4C(=O)N(c5ccc(F)cc5)C(=O)C4ON3C(C(N)=O)c3ccccc3)c2c1 (centres undefined)
59.3 µM (inactive)
